These entries and their values trace back to PubChem BioAssay.

# reported composite z-score; entries follow
- System: Noggin (protein binding on small-molecule microarray)
- procedureText: Noggin binders on small-molecule microarray, primary screen, biochemical, 635/667 nm fluorescence (AID 1095);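 also: score merges 667 nm feature fluorescence with signal to noise over triplicate slides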
- conditions: 635 nm fluorescence, higher = more signal
The answer should be written as a number, with no unit following it.

• CC(C)[C@@H](OCc1ccccc1)[C@H](C)CON=C1[C@H]2CCn3c(=O)n(-c4ccccc4)c(=O)n3[C@H]2[C@H](O)[C@@H]2O[C@H]12 = 0.439
• COC(=O)[C@@H]1CC[C@H](C)[C@@H](c2ccc(C)cc2)N1C(=O)c1ccc(C=NO[C@@H](C)c2cc(-c3c(C)cc(C)cc3C)no2)cc1 = 0.3
• CCN1C(=O)[C@H]2[C@H]3[C@H](O)[C@H](O)CC(=NO[C@@H](C)c4cc(-c5c(C)cc(C)cc5C)no4)[C@@H]3CC[C@H]2C1=O = 0.529

Please look up its composite z-score: CCC1=NOC(CCC2CC(OC(=O)NCc3cccc4c3OCO4)CC3(CCCC(COC(=O)NCCc4ccc(Cl)cc4)O3)O2)C1 (centres undefined) 0.379

====

- procedureText: binders of probe aFGF10 on microarray, primary screen, stem cell growth factor project, biochemical, small-molecule microarray, fluorescence 635/667 (AID 1071);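 also: score merges 667 nm spot intensity and signal to noise from triplicate slides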
- conditions: higher = more signal
# reported composite z-score; entries follow
The answer should be written as a number, with no unit following it.

These solved cases illustrate the format of a correct answer.
* CC(CCC(=O)OC[C@H]1O[C@H](C#Cc2ccccc2)C=C[C@@H]1Oc1ccc(C)cc1)=NOC(C)CN1CCCCc2nc(C)c(C)cc21 (some centres not stated) | -0.12
* CC(C)=CCCC(C)=CCON=C1C[C@@H](O)[C@@H](O)[C@@H]2[C@@H]3C(=O)N(Cc4ccc5c(c4)OCO5)C(=O)[C@@H]3CC[C@@H]12 | 0.31
* CCN1C(=O)[C@H]2[C@H]3[C@H](O)[C@H](O)CC(=NO[C@@H]4O[C@H](CO)[C@@H](O)[C@H](O)[C@H]4O)[C@H]3CC[C@H]2C1=O | 0.235
* CC(=O)OC[C@H]1O[C@H](CC=NOC(C)CN2CCCc3nc(C)c(C)cc32)C=C[C@@H]1OC(C)=O (some centres not stated) | 0.677

Please look up its composite z-score: CCOC(=O)[C@H](Cc1ccccc1)NC(=O)CCC1CC(OC(=O)NCc2ccc3c(c2)OCO3)CC2(CCCC(COC(=O)NCCCN3CCCC3=O)O2)O1 (some centres not stated) 0.377

Please look up its composite z-score: COC(=O)[C@@H]1CC[C@H](C)[C@@H](c2ccc(Br)cc2)N1C(=O)C(F)(F)F -0.148

Please look up its composite z-score: CC(C)CON=C1C[C@@H](O)[C@@H](O)[C@@H]2[C@@H]3C(=O)N(C(C)(C)C)C(=O)[C@@H]3CC[C@@H]12 -0.541

====

- Test system: Noggin (protein binding on small-molecule microarray)
- procedureText: Noggin binders on small-molecule microarray, primary screen, biochemical, 635/667 nm fluorescence (AID 1095);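 also: score merges 667 nm feature fluorescence with signal to noise over triplicate slides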
- conditions: 635 nm fluorescence, higher = more signal
# reported composite z-score; entries follow
The answer should be written as a number, with no unit following it.

Request: composite z-score, test system Noggin (protein binding on small-molecule microarray), entry C[C@@H]1CC[C@H]2C(=O)O[C@@H](CN=[N+]=[N-])CN2[C@H]1c1ccc(Br)cc1 0.553

Request: composite z-score, test system Noggin (protein binding on small-molecule microarray), entry CO[C@H]1COC(=O)[C@H](C)COC(=O)[C@@H](OCc2ccccc2)C=C[C@@H]1C 1

Request: composite z-score, test system Noggin (protein binding on small-molecule microarray), entry COc1ccc(COC(=O)NN=C2C[C@@H](O)[C@@H](O)[C@@H]3[C@@H]4C(=O)N([C@@H](C)c5ccccc5)C(=O)[C@@H]4CC[C@H]23)cc1 -0.245

Request: composite z-score, test system Noggin (protein binding on small-molecule microarray), entry COc1ccc(COC(=O)NN=C2C[C@@H](O)[C@@H](O)[C@@H]3[C@@H]4C(=O)N(C5CCCCC5)C(=O)[C@@H]4CC[C@@H]23)cc1 0.159

Request: composite z-score, test system Noggin (protein binding on small-molecule microarray), entry CC(=O)OC[C@H]1O[C@H](CC=NO[C@@H](C)c2cc(-c3c(C)cc(C)cc3C)no2)C=C[C@@H]1OC(C)=O 0.342

Request: composite z-score, test system Noggin (protein binding on small-molecule microarray), entry CCN1C(=O)[C@H]2[C@H]3[C@H](O)[C@H](O)CC(=NNC(=O)OCc4ccccc4)[C@H]3CC[C@H]2C1=O 0.667

Request: composite z-score, test system Noggin (protein binding on small-molecule microarray), entry O=C1C2=CC[C@H]3C(=O)N(c4ccc(F)cc4F)C(=O)[C@H]3[C@H]2[C@H](O)[C@@H]2O[C@H]12 0.526

Request: composite z-score, test system Noggin (protein binding on small-molecule microarray), entry COCC#Cc1ccc([C@@H]2N[C@H](C(=O)O)CC[C@H]2C)cc1 0.165

Request: composite z-score, test system Noggin (protein binding on small-molecule microarray), entry COC(=O)[C@H](CCSC)NC(=O)CC=C[C@@H](C)CO 1.54

Request: composite z-score, test system Noggin (protein binding on small-molecule microarray), entry CO[C@@H]1C=CCC(=O)N[C@@H](C)C(=O)OC[C@@H](OC)[C@H](C)C=CCC(=O)OC[C@H]1C 1.89

Request: composite z-score, test system Noggin (protein binding on small-molecule microarray), entry COC(=O)[C@@H]1CC[C@H](C)[C@@H](c2ccc(Br)cc2)N1C[C@@H](O)CN=[N+]=[N-] 0.162

====

# reported z-score; entries follow
- procedureText: MM1S cell viability effects, profiling panel, calcein-AM fluorescence, 48 h, basal (AID 1165);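 also: viability of MM1S multiple myeloma cells under basal unstimulated conditions; test concentration not given here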
- conditions: higher = more signal
The answer should be written as a number, with no unit following it.

These solved cases illustrate the format of a correct answer.
- C[C@@H](c1ccccc1)N1C(=O)[C@H]2[C@H]3[C@H](O)[C@H](O)CC(=NOC[C@@H](O)COCc4ccco4)[C@H]3CC[C@H]2C1=O: 0.352
- C[C@@H]1CC[C@H]2C(=O)O[C@@H](COc3ccc(C(C)(C)C)cc3)CN2[C@H]1c1ccc(Br)cc1: -1.26
- C[C@H]1CC[C@H]2C(=O)N[C@H](Cc3ccccc3)C(=O)N2[C@@H]1c1ccccc1: -0.643
- CCOC(=O)[C@H](CC(C)C)NC(=O)CCC1CC(OC(=O)NCc2ccc3c(c2)OCO3)CC2(CCCC(COC(=O)NCCc3ccc(Cl)cc3)O2)O1 (stereo partly specified): -0.986

Please look up its z-score: CON=C(C)CCC(=O)OC[C@H]1O[C@H](C#Cc2ccccc2)C=C[C@@H]1Oc1ccc(C)cc1 -2.99

Please look up its z-score: CC(C)CON=C1C[C@@H](O)[C@@H](O)[C@@H]2[C@@H]3C(=O)N(Cc4ccc5c(c4)OCO5)C(=O)[C@@H]3CC[C@@H]12 0.828

Please look up its z-score: COC(=O)[C@H](C)NC(=O)CCC1CC(OC(=O)NCc2ccc3c(c2)OCO3)CC2(CCCC(COC(=O)NCCC(C)C)O2)O1 (stereo partly specified) -3.18

Please look up its z-score: CON=C[C@@H](OC)[C@H](C)C=CCC(=O)OC 0.253

Please look up its z-score: O=C1[C@H]2[C@H]3[C@H](O)[C@H](O)CC(=NOC[C@@H](O)COCc4ccco4)[C@@H]3CC[C@H]2C(=O)N1Cc1ccccc1 0.727

Please look up its z-score: COC(=O)CC=C[C@@H](C)[C@@H](C=NOC[C@@H](O)COCc1ccco1)OC 0.195

Please look up its z-score: CC(C)=NOC(C)CN1CCCCc2nc(C)c(C)cc21 (stereo unspecified) -0.3

Please look up its z-score: O=C1[C@H]2CCn3c(=O)n(Cc4cc5c(cc4Cl)OCO5)c(=O)n3[C@H]2[C@H](O)[C@@H]2O[C@H]12 -1.72

Please look up its z-score: CCOC(=O)[C@H](Cc1ccccc1)NC(=O)CCC1CC(OC(=O)NCc2cccc3ccccc23)CC2(CCCC(COC(=O)NCC3CCCCC3)O2)O1 (stereo partly specified) -0.0497

Please look up its z-score: COC(=O)[C@H](C)NC(=O)CCC1CC(OC(=O)NCc2cccc3ccccc23)CC2(CCCC(COC(=O)NCCc3ccccc3OC)O2)O1 (stereo partly specified) -3.38

Please look up its z-score: CCOC(=O)[C@H](Cc1ccccc1)NC(=O)CCC1CC(OC(=O)NCc2cccc3ccccc23)CC2(CCCC(COC(=O)NCc3ccc4c(c3)OCO4)O2)O1 (stereo partly specified) 0.505

Please look up its z-score: COC(=O)CC=C[C@@H](C)[C@@H](C=NOC[C@@H](O)COCc1ccco1)NS(=O)(=O)c1ccc(C)cc1 -0.833
